assayed_target: T1, human MSLN-FL-his protein (human, UniProt Q13421 296-580)
T1 construct: made in HEK293E cells, purified on nickel column; also called hMSLN-FL-his; human MSLN full-length protein; not shown: His tag
T1 sequence (Q13421 other isoform, or with tags, fused parts or gaps): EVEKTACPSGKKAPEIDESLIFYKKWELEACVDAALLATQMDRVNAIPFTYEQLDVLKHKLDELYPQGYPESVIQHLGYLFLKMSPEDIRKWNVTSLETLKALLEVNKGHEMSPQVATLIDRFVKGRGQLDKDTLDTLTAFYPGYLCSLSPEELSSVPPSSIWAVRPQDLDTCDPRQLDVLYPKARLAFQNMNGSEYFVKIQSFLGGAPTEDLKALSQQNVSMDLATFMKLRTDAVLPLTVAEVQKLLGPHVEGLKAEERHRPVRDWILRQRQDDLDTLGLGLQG
protocol_details: competitive ELISA; row Tab142; further: test concentration or dose not given here
reported_metric: competition rate (%)
Lab book: enter the figure in %, no units written.

- binder: "S009-F8-32.3 (antibody, human IgG1, kappa, V domains shown, human-murine chimeric antibody, human IgG1/kappa constant regions) VH: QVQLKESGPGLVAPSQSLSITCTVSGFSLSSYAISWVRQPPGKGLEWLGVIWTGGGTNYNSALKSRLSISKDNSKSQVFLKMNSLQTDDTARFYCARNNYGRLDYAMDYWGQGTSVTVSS VL: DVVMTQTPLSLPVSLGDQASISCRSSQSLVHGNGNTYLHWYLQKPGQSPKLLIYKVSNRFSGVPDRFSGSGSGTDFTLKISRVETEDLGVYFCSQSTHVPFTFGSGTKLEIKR"
  units: "%"
  competition rate: 40.6
- binder: "S009-F8-22.23 (antibody, human IgG1, kappa, V domains shown, human-murine chimeric antibody, human IgG1/kappa constant regions) VH: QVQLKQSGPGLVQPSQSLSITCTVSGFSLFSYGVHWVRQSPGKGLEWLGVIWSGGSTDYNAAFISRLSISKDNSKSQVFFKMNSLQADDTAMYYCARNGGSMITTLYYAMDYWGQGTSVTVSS VL: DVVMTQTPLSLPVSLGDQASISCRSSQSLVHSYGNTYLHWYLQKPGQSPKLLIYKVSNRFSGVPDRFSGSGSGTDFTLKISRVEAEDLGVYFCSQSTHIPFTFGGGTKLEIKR"
  units: "%"
  competition rate: 46.4
- binder: "S009-F8-8.22 (antibody, human IgG1, kappa, V domains shown, human-murine chimeric antibody, human IgG1/kappa constant regions) VH: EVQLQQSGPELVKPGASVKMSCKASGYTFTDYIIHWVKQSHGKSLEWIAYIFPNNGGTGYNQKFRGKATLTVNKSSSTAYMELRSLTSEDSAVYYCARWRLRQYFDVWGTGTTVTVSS VL: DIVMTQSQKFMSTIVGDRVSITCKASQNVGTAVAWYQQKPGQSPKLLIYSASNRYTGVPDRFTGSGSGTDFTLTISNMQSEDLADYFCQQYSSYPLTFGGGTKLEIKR"
  units: "%"
  competition rate: 33.8
- binder: "S009-F8-33.12 (antibody, human IgG1, kappa, V domains shown, human-murine chimeric antibody, human IgG1/kappa constant regions) VH: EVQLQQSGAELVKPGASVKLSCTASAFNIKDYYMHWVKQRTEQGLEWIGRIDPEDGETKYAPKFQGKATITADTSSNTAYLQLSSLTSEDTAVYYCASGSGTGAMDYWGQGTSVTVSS VL: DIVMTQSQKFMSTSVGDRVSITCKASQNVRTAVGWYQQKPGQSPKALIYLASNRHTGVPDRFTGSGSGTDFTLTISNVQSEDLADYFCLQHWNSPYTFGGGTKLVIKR"
  units: "%"
  competition rate: 47.9
- binder: "S009-F8-36.12 (antibody, human IgG1, kappa, V domains shown, human-murine chimeric antibody, human IgG1/kappa constant regions) VH: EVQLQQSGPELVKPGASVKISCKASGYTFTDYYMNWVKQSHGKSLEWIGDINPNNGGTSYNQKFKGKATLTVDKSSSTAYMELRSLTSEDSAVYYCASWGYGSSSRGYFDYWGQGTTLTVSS VL: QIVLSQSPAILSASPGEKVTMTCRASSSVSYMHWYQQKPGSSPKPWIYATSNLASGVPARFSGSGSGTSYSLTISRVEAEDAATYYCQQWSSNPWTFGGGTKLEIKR"
  units: "%"
  competition rate: 17.4

Then this binder:
What the record says about S009-F8-24.14 (antibody, human IgG1, kappa, V domains shown, human-murine chimeric antibody, human IgG1/kappa constant regions) VH: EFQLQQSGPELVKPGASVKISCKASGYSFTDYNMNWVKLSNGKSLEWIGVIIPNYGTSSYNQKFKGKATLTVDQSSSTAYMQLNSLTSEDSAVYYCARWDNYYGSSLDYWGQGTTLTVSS VL: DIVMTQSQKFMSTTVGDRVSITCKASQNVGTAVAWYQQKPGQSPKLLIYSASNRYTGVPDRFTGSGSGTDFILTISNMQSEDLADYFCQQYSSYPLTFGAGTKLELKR : competition rate is 22.9
